experiment: blockers of serum C3 deposition on LPS – biochemical, ELISA, human serum, orthogonally pooled compounds, primary screen (AID 1235); conditions: Human serum alternative complement pathway, LPS-coated ELISA, tested in compound mixtures, at 5 µM, active compounds read high;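 also: 0% = serum in Mg-EGTA without compound and 100% = EDTA serum blank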
Out of some 62,000 compounds screened, about 50 (0.08%) were called active. This is one part of a sample in which actives are shown more often than they occur.
quantity-name: inhibition (%)

CCCSc1nc2c(c(=O)n(C)c(=O)n2C)n1Cc1ccc(C)cc1; -3.43
CCn1c(SCC(=O)Nc2nc3ccc(OC)cc3s2)nnc1-c1ccoc1C; 4.77
CCOc1ccccc1NC(=O)CCc1ccc(C)o1; 9.69
CC1C=CCC2C(=O)N(c3cccc(C(=O)N4CCCCCC4)c3)C(=O)C12 (configuration not stated); 19
CC(C)(C)NC(=O)C(c1ccncc1)N(C(=O)CNC(=O)c1ccco1)c1ccc2c(c1)OCO2 (configuration not stated); 4.9
O=C1C2(c3ccccc3)CN(CCCO)CC1(c1ccccc1)CN(CCCO)C2; 0.125
Cc1ccc(-c2nc(CS(=O)CC(=O)NC3CCCC3)c(C)o2)cc1 (configuration not stated); 10.5
